- Study system: MS2 coat protein, dlFG mutant (Escherichia phage MS2, UniProt P03612, del68-81insG)
- Test: 4 mM Mg2+; no ligand; RNA-MaP array; 100 mM Tris-HCl pH 7.5, 80 mM KCl, 4 mM MgCl2, 0.1 mg/mL BSA, 1 mM DTT, 0.01 mg/mL yeast tRNA, 0.01% Tween-20; protein 1.5 nM to 3 uM; 37 C (Table S3)
- Settings: chain copies: 2; label: tethered by stalled RNA polymerase
Property: Kd

Q: // lookup Kd for Eterna 1615 (Same State - Theophylline A) (ssRNA) RNA: UGCACCAGUGAUGUUGGUCGGCACCGAGAUACCAGCUGAUCUCUUAGCCCUUGGCAGCUCUUUAUUCGCGUUAUCAGUUUCUUCG
A: > 3 µM

Q: Try Eterna 7692524 (Same State - Theophylline A) (ssRNA) RNA: UGAUAAUGCAGUGAUGUUGCUAGAAACGAUACCAGUUAAGAAAAGAACCCUUGGCAGCGUAAAGUGCGCUCUAAUGAGUGUGCUU next.
A: > 3 µM

Q: Try Eterna 7685149 (Same State - Theophylline B) (ssRNA) RNA: AAGUGUUCUAGUGAUACCAGACAAUUUUAUUUUUUCUUUUUUGCUAAGUGAUGUUUAGCAGUCCCUUGGCAGCACUAUUUCACUA next.
A: > 3 µM

Q: Try Eterna 10695 (Exclusion 1) (ssRNA) RNA: AAUUCACAUGAGGAUCACCCAUGUCAGGAUAUGGUGACGCGGGUUUCGGUGCGUGUUGCCAGAAGGGACGGCUG next.
A: 0.133 µM

Q: Try Eterna 7694710 (Exclusion - FMN B) (ssRNA) RNA: GGAUAGGACAGAGGAUAUGGACAGUCUACAAAGUAGGCUGAAAAUCCUUGAAUGGAAGUGAUGUUUCUAGAAGGCUGUCCUAUCG next.
A: > 3 µM

Q: Try Eterna 7751925 (Exclusion - Tryptophan B) (ssRNA) RNA: GGUAGCAUGGCGGCCGCCACUAAGAGAGUGAUGUUCUCUUAGUUUUUUGAUGUGUUAUCAAUUCUUAGGACCGGGCCAUGCUACC next.
A: > 3 µM

Q: Try Eterna 7702469 (Exclusion - Arginine B) (ssRNA) RNA: GUUACGCAUGGAAGGAGCGCGAAAAUUUAUAGUGAGUGAUGUUCACAAAUAAGAAUAAUAACGCAGGUAGGUCGCCAUGUGUAAC next.
A: > 3 µM

Q: Try Eterna 7740495 (Exclusion - Theophylline A) (ssRNA) RNA: UCCUGCAAUCGUCCACGAAAGUGGAUCGAUACCAGAGUCGAAAGACUCCCUUGGCAGCGAGUGAUGUUCGAAGCAGGUAAAUAAA next.
A: > 3 µM

Q: Try Eterna 6455078 (Same State NG 2) (ssRNA) RNA: UGGUACUAGGGAGGAUAUGGGAAGAUACAUGAGGAUCACCCAUGUUUAAGAAUGCCGAGAGGGAACUAGAAGGCCCUAGUACCU next.
A: 0.255 µM
